SYSTEM NAME: P236L viral reverse transcriptase (Human immunodeficiency virus type 1 group M subtype B, UniProt P04585, P823L)
Construct: P236L viral reverse transcriptase is obtained by PNAS 90: 4713-4717 (1993); made in house
PROCEDURE DETAILS: inhibition of viral reverse transcriptase (P236L), cell free assay
Assay type: biochemical
ASSAY CONDITIONS: 30 minutes at 37° C., read-out: IC50 (Table I, P236L)
VALUE KIND: log10 IC50 (log10 of the value in nM)
// do not treat as linear: log10 of IC50, unit nM

Example results:
Cc1cccc(CSc2nc(N)cc(Cl)n2)c1 ... 1.70
Nc1cc(Cl)nc(SCc2cc3ccccc3o2)n1 ... 4.00
Nc1cc(Cl)nc(SCc2cccc(Cl)n2)n1 ... 1.85
Cc1cncc(CSc2nc(N)cc(Cl)n2)n1 ... 4.00

Value sought for every listed compound: log10 IC50.
1. Cc1cc(CSc2nc(N)cc(Cl)n2)ncn1
2. Nc1cc(Cl)nc(SCc2cc3ccccc3s2)n1
3. Nc1cc(Cl)nc(SC/C=C/c2ccccc2)n1
4. Nc1cc(Cl)nc(SCc2ccc3ccccc3n2)n1
5. Nc1cc(Cl)nc(SCc2cc(CO)ccn2)n1
6. CCCNc1cc(Cl)nc(SCc2ccccc2)n1

2.90
3.00
1.82
3.70
3.00
5.00

###

SYSTEM NAME: P236L viral reverse transcriptase (Human immunodeficiency virus type 1 group M subtype B, UniProt P04585, P823L)
Construct: P236L viral reverse transcriptase is obtained by PNAS 90: 4713-4717 (1993); made in house
PROCEDURE DETAILS: inhibition of viral reverse transcriptase (P236L), cell free assay
Assay type: biochemical
ASSAY CONDITIONS: IC50 (Table I, P236L), 30 minutes at 37° C.
VALUE KIND: pIC50
Give bare numbers, as −log10 of the molar value.

Cc1coc2cnc([C@H](C)Sc3nc(N)cc(Cl)n3)cc12 ... 7.85
CC(C)Oc1ccnc(C(C)Sc2nc(N)cc(Cl)n2)c1 (centres unmarked) ... 7.00

Look up pIC50 for the entries below, preserving their order.
1. N#Cc1cc(N)nc(SCc2ccc3ccccc3c2)n1
2. CCc1ccnc(C(C)Sc2nc(N)cc(Cl)n2)c1 (centres unmarked)
3. N#Cc1cc(Cl)nc(SCc2ccc3ccccc3c2)n1
4. CCN(CC)C(=O)/C=C/C(C)Sc1nc(N)cc(Cl)n1 (centres unmarked)
5. CC(C)c1ccnc(C(C)Sc2nc(N)c(Br)c(Cl)n2)c1 (centres unmarked)
6. Cc1coc2cnc([C@H](C)Sc3nc(N)cc(C(F)(F)F)n3)cc12

6.30
7.52
4.30
7.17
7.17
7.19

###

SYSTEM NAME: P236L viral reverse transcriptase (Human immunodeficiency virus type 1 group M subtype B, UniProt P04585, P823L)
Construct: P236L viral reverse transcriptase is obtained by PNAS 90: 4713-4717 (1993); made in house
PROCEDURE DETAILS: inhibition of viral reverse transcriptase (P236L), cell free assay
Type: biochemical
ASSAY CONDITIONS: 30 minutes at 37° C., read-out: IC50 (Table I, P236L)
pIC50: −log10 of the molar value.
Category | rule: reported pIC50 within range, see 1 = under 6, 2 = from 6 up to 7, 3 = 7 and over

Below are worked cases with known answers.
Nc1cc(Cl)nc(SCc2ccc3c(c2)OCO3)n1 ... 2
Nc1cc(Cl)nc(SCc2cnc3ccccc3n2)n1 ... 2
Nc1cc(Cl)nc(SCc2c(Cl)cccc2Cl)n1 ... 1
Nc1nc(SCc2cc(Cl)ccn2)nc(Cl)c1F [Example 149] ... 3
CC(C)c1ccnc(CSc2nc(N)c(Br)c(Cl)n2)c1 ... 3

In plain terms, what class is Cc1cnc(CSc2nc(N)cc(Cl)n2)cn1 ?
1

Please classify: Nc1cc(Cl)nc(SCc2c(F)cccc2F)n1
1

In plain terms, what class is CCCc1ccnc(CSc2nc(N)cc(Cl)n2)c1 ?
3

# bin label for Nc1cc(Cl)nc(SCc2cc(Cl)ccn2)n1
3

Lab note: which band did Nc1cc(Cl)nc(SCc2cc3ccccc3cn2)n1 land in?
3
